Give Aqueous solubility pH 6.5 for every item shown.
experiment-notes: Kinetic solubility by HPLC (pH 6.5)
protocol-conditions: kinetic, HPLC, pH 6.5
Please give a number only; it is taken to be in μM.

Give the measured Aqueous solubility pH 6.5 for COc1cc[n+]2c(c1)-c1cc(OC)cc[n+]1[Pt-2]21[O+]=C(c2ccccc2)N=C(N(CCO)CCO)[S]1.[Cl-] [C4]
195

Return Aqueous solubility pH 6.5 for the following molecule: Cc1cc[n+]2c(c1)-c1cc(C)cc[n+]1[Pt-2]21[O+]=C(c2ccccc2)N=C(N(CCO)CCO)[S]1.[Cl-] [C2]
170

Respond only with Aqueous solubility pH 6.5 recorded for CC(C)(C)c1cc[n+]2c(c1)-c1cc(C(C)(C)C)cc[n+]1[Pt-2]21[O+]=C(c2ccccc2)N=C(N(CCO)CCO)[S]1.[Cl-] [C1]
95

Please give measured Aqueous solubility pH 6.5 of the following entry: Nc1cc[n+]2c(c1)-c1cc(N)cc[n+]1[Pt-2]21[O+]=C(c2ccccc2)N=C(N(CCO)CCO)[S]1.[Cl-] [C6]
100

----------
System: PfNF54
experiment-notes: 72 h pLDH assay, PfNF54 (precursor compounds)
Format: cell-based, Plasmodium falciparum
protocol-conditions: Plasmodium falciparum, 72 h, read-out: PfNF54 IC50
pIC50: −log10 of the molar value.
recorded-endpoint: pIC50

# return recorded pIC50 for input O=C(NC(=S)N(CCO)CCO)c1ccccc1 [compound 2]
< 5.30

----------
Test system: late-stage gametocytes (NF54-PfS16-GFP-Luc)
experiment-notes: Luciferase reporter assay, late-stage gametocytes
Format: cell-based, Plasmodium falciparum
protocol-conditions: 1 µM, single biological repeat
Exercise: state measured LG (% inhibition) 1 µM for each of the molecules provided.

Enter LG (% inhibition) 1 µM (test system late-stage gametocytes (NF54-PfS16-GFP-Luc)) for "OCCN(CCO)C1=NC(c2ccccc2)=[O+][Pt-2]2([S]1)[n+]1ccccc1-c1cccc[n+]12.[Cl-]"
14.8 % inhibition

# return LG (% inhibition) 1 µM for "COC(=O)c1cc[n+]2c(c1)-c1cc(C(=O)OC)cc[n+]1[Pt-2]21[O+]=C(c2ccccc2)N=C(N(CCO)CCO)[S]1.[Cl-]" , test system: late-stage gametocytes (NF54-PfS16-GFP-Luc)
0.6 % inhibition

Please report the measured LG (% inhibition) 1 µM for "Cc1cc[n+]2c(c1)-c1cc(C)cc[n+]1[Pt-2]21[O+]=C(c2ccccc2)N=C(N(CCO)CCO)[S]1.[Cl-]" tested on late-stage gametocytes (NF54-PfS16-GFP-Luc).
11.3 % inhibition

Using late-stage gametocytes (NF54-PfS16-GFP-Luc) as the test system, report measured LG (% inhibition) 1 µM of "OCCN(CCO)C1=NC(c2ccccc2)=[O+][Pt-2]2([S]1)[n+]1ccc(O)cc1-c1cc(O)cc[n+]12.[Cl-]" .
0.0 % inhibition

----------
experiment-notes: Single-point microsomal metabolic stability, mouse
Format: in vitro ADME
protocol-conditions: mouse liver microsomes, 1 µM
So I've got a bunch of molecules here, and I need their Microsomal metabolic stability (% remaining after 30 min) Mouse values.
Express the result in % remaining but write the number alone.

Respond only with Microsomal metabolic stability (% remaining after 30 min) Mouse recorded for "OCCN(CCO)C1=NC(c2ccccc2)=[O+][Pt-2]2([S]1)[n+]1ccccc1-c1cccc[n+]12.[Cl-]"
75

Provide one value: measured Microsomal metabolic stability (% remaining after 30 min) Mouse of "COc1cc[n+]2c(c1)-c1cc(OC)cc[n+]1[Pt-2]21[O+]=C(c2ccccc2)N=C(N(CCO)CCO)[S]1.[Cl-]"
88

Please give the documented Microsomal metabolic stability (% remaining after 30 min) Mouse of "OCCN(CCO)C1=NC(c2ccccc2)=[O+][Pt-2]2([S]1)[n+]1ccc(C(F)(F)F)cc1-c1cc(C(F)(F)F)cc[n+]12.[Cl-]"
46

Given the molecule "Cc1cc[n+]2c(c1)-c1cc(C)cc[n+]1[Pt-2]21[O+]=C(c2ccccc2)N=C(N(CCO)CCO)[S]1.[Cl-]" , write its reported Microsomal metabolic stability (% remaining after 30 min) Mouse.
72

Report measured Microsomal metabolic stability (% remaining after 30 min) Mouse; entry is "Nc1cc[n+]2c(c1)-c1cc(N)cc[n+]1[Pt-2]21[O+]=C(c2ccccc2)N=C(N(CCO)CCO)[S]1.[Cl-]"
94

----------
Can you tell me EG (% inhibition) 5 µM for the items I'm about to list?
System: early-stage gametocytes (NF54-PfS16-GFP-Luc)
experiment-notes: Luciferase reporter assay, early-stage gametocytes
Type: cell-based, Plasmodium falciparum
protocol-conditions: 5 µM, single biological repeat
Value expressed in % inhibition; do not type the unit.

Using known records, supply EG (% inhibition) 5 µM for Cc1cc[n+]2c(c1)-c1cc(C)cc[n+]1[Pt-2]21[O+]=C(c2ccccc2)N=C(N(CCO)CCO)[S]1.[Cl-] [C2]
7.9

Provide EG (% inhibition) 5 µM value for the following molecule: OCCN(CCO)C1=NC(c2ccccc2)=[O+][Pt-2]2([S]1)[n+]1ccc(Cl)cc1-c1cc(Cl)cc[n+]12.[Cl-] [C7]
4.1

Read off the recorded EG (% inhibition) 5 µM for OCCN(CCO)C1=NC(c2ccccc2)=[O+][Pt-2]2([S]1)[n+]1ccccc1-c1cccc[n+]12.[Cl-] [C3]
0.0

Consider the molecule OCCN(CCO)C1=NC(c2ccccc2)=[O+][Pt-2]2([S]1)[n+]1ccc(O)cc1-c1cc(O)cc[n+]12.[Cl-] [C5] and give its recorded EG (% inhibition) 5 µM.
0.0

Return the recorded EG (% inhibition) 5 µM value; entry: COc1cc[n+]2c(c1)-c1cc(OC)cc[n+]1[Pt-2]21[O+]=C(c2ccccc2)N=C(N(CCO)CCO)[S]1.[Cl-] [C4]
9.1

Write down EG (% inhibition) 5 µM measured for item Nc1cc[n+]2c(c1)-c1cc(N)cc[n+]1[Pt-2]21[O+]=C(c2ccccc2)N=C(N(CCO)CCO)[S]1.[Cl-] [C6]
20.1

Consider the molecule OCCN(CCO)C1=NC(c2ccccc2)=[O+][Pt-2]2([S]1)[n+]1ccc(C(F)(F)F)cc1-c1cc(C(F)(F)F)cc[n+]12.[Cl-] [C8] . State its measured EG (% inhibition) 5 µM.
50.0

----------
Tested on: ABS parasites
experiment-notes: Dual point activity against ABS parasites
Assay type: cell-based, Plasmodium falciparum
protocol-conditions: 5 µM, single biological repeat
Use 90 % inhibition as the dividing line for ABS (% inhibition) 5 µM, with the line itself on the satisfied side and lower values as not satisfied.

Reported ABS (% inhibition) 5 µM at or above 90 % inhibition? OCCN(CCO)C1=NC(c2ccccc2)=[O+][Pt-2]2([S]1)[n+]1ccc(C(F)(F)F)cc1-c1cc(C(F)(F)F)cc[n+]12.[Cl-] [C8]
not satisfied

Given the entry COc1cc[n+]2c(c1)-c1cc(OC)cc[n+]1[Pt-2]21[O+]=C(c2ccccc2)N=C(N(CCO)CCO)[S]1.[Cl-] [C4] , answer whether its ABS (% inhibition) 5 µM meets or surpasses 90 % inhibition.
satisfied

In plain terms: is recorded ABS (% inhibition) 5 µM at least 90 % inhibition for Nc1cc[n+]2c(c1)-c1cc(N)cc[n+]1[Pt-2]21[O+]=C(c2ccccc2)N=C(N(CCO)CCO)[S]1.[Cl-] [C6] ?
satisfied

Assess whether reported ABS (% inhibition) 5 µM for OCCN(CCO)C1=NC(c2ccccc2)=[O+][Pt-2]2([S]1)[n+]1ccc(Cl)cc1-c1cc(Cl)cc[n+]12.[Cl-] [C7] sits at 90 % inhibition or higher.
not satisfied

Can OCCN(CCO)C1=NC(c2ccccc2)=[O+][Pt-2]2([S]1)[n+]1ccccc1-c1cccc[n+]12.[Cl-] [C3] be said to have ABS (% inhibition) 5 µM at or above 90 % inhibition?
satisfied

Could you please find out whether COC(=O)c1cc[n+]2c(c1)-c1cc(C(=O)OC)cc[n+]1[Pt-2]21[O+]=C(c2ccccc2)N=C(N(CCO)CCO)[S]1.[Cl-] [C10] has ABS (% inhibition) 5 µM that meets 90 % inhibition or exceeds it?
not satisfied

----------
Test system: PfNF54
experiment-notes: 72 h pLDH assay, PfNF54 (precursor compounds)
Assay type: cell-based, Plasmodium falciparum
protocol-conditions: precursor compounds, 72 h pLDH assay; read-out: PfNF54 IC50
Procedure: Lastly, the pharmacological effect of substitution with a methyl group at different positions on the bpy ring was determined (SAR4). Changing from the 4,4′-positions (C2) to the 5,5′-positions (C14) improved the PfNF54 activity by 5-fold, whereas changing to the 6,6′-positions (C15) decreased the activity by 2-fold.
pIC50: −log10 of the molar value.
recorded-endpoint: pIC50

Please report the measured pIC50 for [Cl][Pt-2]([Cl])([Cl])[Cl].[K+].[K+] [K2PtCl4, potassium tetrachloroplatinate]
< 5.30
